- Target system: MDR1 (P-gp) (Homo sapiens, UniProt P08183)
- Construct: expressed in transfected cells; host or cells: LLC-PK1
- Sequence (P08183 whole entry): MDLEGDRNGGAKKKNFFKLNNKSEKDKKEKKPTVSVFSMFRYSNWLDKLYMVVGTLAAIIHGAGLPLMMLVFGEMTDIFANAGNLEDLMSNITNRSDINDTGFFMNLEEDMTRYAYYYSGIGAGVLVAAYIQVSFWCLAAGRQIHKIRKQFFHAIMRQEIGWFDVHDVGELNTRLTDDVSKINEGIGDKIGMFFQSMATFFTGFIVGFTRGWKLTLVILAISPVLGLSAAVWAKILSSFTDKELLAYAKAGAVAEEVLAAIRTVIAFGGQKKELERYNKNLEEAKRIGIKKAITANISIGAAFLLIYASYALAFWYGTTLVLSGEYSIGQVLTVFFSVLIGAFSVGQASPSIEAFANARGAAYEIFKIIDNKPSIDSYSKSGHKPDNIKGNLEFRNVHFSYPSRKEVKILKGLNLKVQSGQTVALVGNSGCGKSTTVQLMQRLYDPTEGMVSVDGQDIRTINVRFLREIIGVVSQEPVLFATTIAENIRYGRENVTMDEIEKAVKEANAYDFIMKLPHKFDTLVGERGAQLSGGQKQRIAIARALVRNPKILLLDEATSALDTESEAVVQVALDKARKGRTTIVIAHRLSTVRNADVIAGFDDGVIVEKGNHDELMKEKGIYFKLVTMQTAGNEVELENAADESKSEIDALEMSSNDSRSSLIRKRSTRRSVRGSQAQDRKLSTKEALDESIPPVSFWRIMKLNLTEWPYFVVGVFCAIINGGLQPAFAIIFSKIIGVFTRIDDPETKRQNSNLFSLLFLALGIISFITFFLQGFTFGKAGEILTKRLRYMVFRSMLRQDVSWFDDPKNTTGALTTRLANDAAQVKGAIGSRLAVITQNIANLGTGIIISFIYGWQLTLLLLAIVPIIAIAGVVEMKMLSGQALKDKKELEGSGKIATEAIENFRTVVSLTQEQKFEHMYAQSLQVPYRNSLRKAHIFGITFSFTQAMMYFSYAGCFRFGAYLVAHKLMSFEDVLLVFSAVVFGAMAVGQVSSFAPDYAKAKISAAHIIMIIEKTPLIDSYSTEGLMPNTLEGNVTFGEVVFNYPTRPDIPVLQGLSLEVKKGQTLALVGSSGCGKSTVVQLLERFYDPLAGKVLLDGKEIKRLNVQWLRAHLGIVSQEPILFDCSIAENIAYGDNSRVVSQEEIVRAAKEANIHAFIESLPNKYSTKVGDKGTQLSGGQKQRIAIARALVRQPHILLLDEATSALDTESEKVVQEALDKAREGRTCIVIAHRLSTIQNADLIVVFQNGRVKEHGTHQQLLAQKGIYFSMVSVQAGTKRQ
- Assay protocol: MDR1 LLC-PK1 permeability assay
- Format: in vitro ADME
- Conditions used: pig, LLC-PK1, efflux ratio = Papp(B-A)/Papp(A-B), MDR1 transfected LLC-PK1 cells; read-out: MDR1 Pe Ratio
Field: label. Allowed values: T (efflux ratio at 2 h, 1 μM < 5) or F (efflux ratio at 2 h, 1 μM >= 5).

IN: efflux ratio at 2 h, 1 μM under 5? Item: "COc1ccc(-c2cn(C(C)C)cc(C(=O)Nc3ccc(Oc4ccnc5cc(OC)c(OC)cc45)cn3)c2=O)cc1"
OUT: T

IN: Quick check: does "COc1cc2nccc(Oc3ccc(NC(=O)c4cn(C)c(C(C)C)c(-c5ccc(F)cc5)c4=O)nc3)c2cc1OC" have efflux ratio at 2 h, 1 μM under 5?
OUT: F

IN: Find out if reported efflux ratio at 2 h, 1 μM for "COc1cc2nccc(Oc3cnc(NC(=O)c4cn(C(C)C)c(C)c(-c5ccc(F)cc5)c4=O)nc3)c2cc1OC" is less than 5
OUT: F

IN: Does this compound meet the criterion efflux ratio at 2 h, 1 μM < 5? "CC(C)n1cc(C(=O)Nc2ccc(Oc3ccnc4cc(OC(F)(F)F)ccc34)cn2)c(=O)c(-c2ccc(F)cc2)c1"
OUT: T

IN: Answer whether the compound "COc1cc2nccc(Oc3ccc(NC(=O)c4cn(C(C)C)cc(-c5ccc(F)cc5F)c4=O)nc3)c2cc1OC" has efflux ratio at 2 h, 1 μM strictly less than 5
OUT: T

IN: Identify whether the compound "COc1cc2nccc(Oc3ccc(NC(=O)c4cn(CCN(C)C)cc(-c5ccc(F)c(F)c5)c4=O)nc3)c2cc1OC" records efflux ratio at 2 h, 1 μM below 5.
OUT: F

IN: Just wondering, is efflux ratio at 2 h, 1 μM of "COc1cc2nccc(Oc3ccc(NC(=O)c4cn(C(C)C)cc(-c5ccc(F)cc5OC)c4=O)nc3)c2cc1OC" below 5?
OUT: F

IN: Please indicate whether the reported efflux ratio at 2 h, 1 μM of "CNC(=O)Cn1cc(C(=O)Nc2ccc(Oc3ccnc4cc(OC)c(OC)cc34)cn2)c(=O)c(-c2ccc(F)cc2)c1" is strictly below 5.
OUT: F

IN: # strict comparison: is reported efflux ratio at 2 h, 1 μM < 5? input = "COCCn1cc(C(=O)Nc2ccc(Oc3ccnc4cc(OC)c(OC)cc34)cn2)c(=O)c(-c2ccc(F)cc2)c1"
OUT: F

IN: Say whether its efflux ratio at 2 h, 1 μM is strictly beneath 5. Entry: "CCc1c(-c2ccc(F)cc2)c(=O)c(C(=O)Nc2ccc(Oc3ccnc4cc(OC)c(OC)cc34)cn2)cn1C(C)C"
OUT: T

IN: Find out if reported efflux ratio at 2 h, 1 μM for "COc1cc2nccc(Oc3ccc(NC(=O)c4cn(C(C)C)cc(-c5ccc(F)cc5)c4=O)cn3)c2cc1OC" is less than 5
OUT: T

IN: Identify whether the compound "COc1cc2nccc(Oc3ccc(NC(=O)c4cn(C(C)C)c(C)c(-c5ccc(F)c(F)c5)c4=O)nc3)c2cc1OC" records efflux ratio at 2 h, 1 μM below 5.
OUT: T

IN: Problem: For the compound "COc1ccc2nccc(Oc3ccc(NC(=O)c4cn(C(C)C)c(C)c(-c5ccc(F)cc5)c4=O)nc3)c2c1" , is efflux ratio at 2 h, 1 μM under 5?
OUT: T
